Test Name: Solubility experiment
Format: physicochemical
Run Conditions: Ethyl acetate; calculated for crystal form I
Measurement Kind: Solubility (µg/mL)
Expressed in µg/mL, but write only the number.

These recorded examples may help you get a feel for the data.
* CCN1CCN(Cc2ccc(Nc3ncc4c(n3)-c3c(nc(C5CC5)n3C(C)C)C4)nc2)CC1 [Crystal form K-1] | 11480
* CCN1CCN(Cc2ccc(Nc3ncc4c(n3)-c3c(nc(C5CC5)n3C(C)C)C4)nc2)CC1 [Crystal form A] | 30

Solubility recorded for this compound, CCN1CCN(Cc2ccc(Nc3ncc4c(n3)-c3c(nc(C5CC5)n3C(C)C)C4)nc2)CC1 [Crystal form B-1] , is 20

###

Test Name: Solubility experiment
Assay type: physicochemical
Run Conditions: medium pH7.4; calculated for crystal form I
Measurement Kind: Solubility

• CCN1CCN(Cc2ccc(Nc3ncc4c(n3)-c3c(nc(C5CC5)n3C(C)C)C4)nc2)CC1 [Crystal form K-1] = >38.78 mg/mL
• CCN1CCN(Cc2ccc(Nc3ncc4c(n3)-c3c(nc(C5CC5)n3C(C)C)C4)nc2)CC1 [Crystal form B-1] = >25.65 mg/mL
• CCN1CCN(Cc2ccc(Nc3ncc4c(n3)-c3c(nc(C5CC5)n3C(C)C)C4)nc2)CC1 [Crystal form I] = 1.08 mg/mL

With those in mind, consider the next compound.
Solubility recorded for this compound, CCN1CCN(Cc2ccc(Nc3ncc4c(n3)-c3c(nc(C5CC5)n3C(C)C)C4)nc2)CC1 [Crystal form A] , is 17.86 mg/mL

###

Recorded pIC50 values (CDK6 (Homo sapiens)) are given below.
Scale explanation: pIC50 corresponds to minus log10 of a concentration expressed in moles per litre.

* Cc1c2c(nn1C)CCc1cnc(Nc3ccc(N4CCN(C)CC4)cc3)nc1-2 [compound 1, reference compound] | 7.28

With those in mind, consider the next compound.
Field pIC50 (system: CDK6 (Homo sapiens)) for entry CCN1CCN(Cc2ccc(Nc3ncc4c(n3)-c3c(nc(C5CC5)n3C(C)C)C4)nc2)CC1 [Free base of compound of formula X] = 7.24
